# TESTED_SYSTEM: Aurora kinase B (Homo sapiens, UniProt Q96GD4)
# Sequence (Q96GD4 whole entry): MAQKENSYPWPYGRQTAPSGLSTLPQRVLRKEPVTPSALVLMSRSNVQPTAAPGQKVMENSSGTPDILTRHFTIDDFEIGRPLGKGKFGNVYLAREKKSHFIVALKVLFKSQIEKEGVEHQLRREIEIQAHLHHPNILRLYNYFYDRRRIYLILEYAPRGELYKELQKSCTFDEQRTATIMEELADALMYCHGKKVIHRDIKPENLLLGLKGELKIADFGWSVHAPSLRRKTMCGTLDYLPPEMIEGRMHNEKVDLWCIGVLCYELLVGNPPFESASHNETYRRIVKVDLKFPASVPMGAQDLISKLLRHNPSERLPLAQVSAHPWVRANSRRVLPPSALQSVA
# MEASUREMENT_PROTOCOL: Inhibition of recombinant full length human Aurora B using AKRRRLSSLRA as substrate incubated for 40 mins in presence of [gamma-33ATP] by scintillation counting based radiometry assay
pIC50: −log10 of the molar value.

[
  {
    "SMILES_RECORD": "CC(C)(C)c1cc(NC(=O)Nc2ccc(Nc3ncnc4c3OCCCN4)cc2)no1",
    "pIC50": 5.79
  }
]

###

# TESTED_SYSTEM: High affinity nerve growth factor receptor (Homo sapiens, UniProt P04629)
# Sequence (P04629 whole entry): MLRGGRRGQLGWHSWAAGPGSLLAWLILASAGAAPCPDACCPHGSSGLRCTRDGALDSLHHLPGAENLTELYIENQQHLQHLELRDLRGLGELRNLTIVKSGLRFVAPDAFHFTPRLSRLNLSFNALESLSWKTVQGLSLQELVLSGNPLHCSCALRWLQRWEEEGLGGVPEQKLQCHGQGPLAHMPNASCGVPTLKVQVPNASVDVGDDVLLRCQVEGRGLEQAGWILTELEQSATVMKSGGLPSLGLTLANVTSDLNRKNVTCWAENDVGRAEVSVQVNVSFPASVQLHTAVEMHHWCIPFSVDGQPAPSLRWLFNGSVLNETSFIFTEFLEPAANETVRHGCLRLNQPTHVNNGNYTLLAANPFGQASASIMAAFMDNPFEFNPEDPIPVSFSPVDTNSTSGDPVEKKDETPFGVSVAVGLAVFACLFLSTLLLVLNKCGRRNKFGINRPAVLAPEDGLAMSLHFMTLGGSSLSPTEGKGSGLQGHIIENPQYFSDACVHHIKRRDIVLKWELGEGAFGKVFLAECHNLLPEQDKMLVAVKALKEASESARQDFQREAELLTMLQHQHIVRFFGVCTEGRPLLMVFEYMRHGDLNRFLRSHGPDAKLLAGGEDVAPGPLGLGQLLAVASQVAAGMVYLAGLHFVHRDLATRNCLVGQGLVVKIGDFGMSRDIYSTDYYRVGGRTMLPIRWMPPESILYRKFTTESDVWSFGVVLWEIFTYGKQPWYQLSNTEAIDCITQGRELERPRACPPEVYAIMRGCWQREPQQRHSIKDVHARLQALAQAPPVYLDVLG
REPORTED_PROPERTY: IC50 (nM)

[
  {
    "SMILES_RECORD": "CC(C)(C)c1cc(NC(=O)Nc2ccc(Nc3ncnc4c3OCCCN4)cc2)no1",
    "REPORTED_PROPERTY": "IC50",
    "REPORTED": 71
  }
]
